# Test protocol: in vitro
# Condition label: human, WI-38 cells and A549 cells
# Description: Selectivity index, ratio of IC50 for human WI-38 cells to IC50 for human A549 cells
Endpoint: selectivity ratio
Output: the number by itself.

### Prompt I'd like to know its selectivity ratio. The compound in question is "CCN1CCN(c2ccc(NC(=O)Nc3ccc(-c4cc(C(=O)NC(C)C)c5ncccc5n4)cc3)cc2C(F)(F)F)CC1"
### Response 6.4

* * *

# Test protocol: Selectivity index, ratio of IC50 for human WI-38 cells to IC50 for human SR cells
# Assay type: toxicity
# Condition label: WI-38 cells and SR cells, read-out: Ratio IC50
Endpoint: selectivity ratio
Output: the number by itself.

### Prompt I'd like to know its selectivity ratio. The compound in question is "CCN1CCN(c2ccc(NC(=O)Nc3ccc(-c4cc(C(=O)NC(C)C)c5ncccc5n4)cc3)cc2C(F)(F)F)CC1"
### Response 15.4
